Each entry below lists one item and its recorded Cures value.
Tested on: Mus musculus
experimentSummary: Antimalarial activity against Plasmodium berghei in mice (Mus musculus) at a dose of 80 mg/kg and activity expressed as number cures surviving 60 days
Assay type: functional
Would you mind answering with just the numeric figure?

CCc1ccnc2c(NC(C)CCCN)cc(OC)c(Oc3cccc(C(F)(F)F)c3)c12 (centres undefined) | 4

Challenge: Item COCc1ccnc2c(NC(C)CCCN)cc(OC)c(Oc3cccc(C(F)(F)F)c3)c12 (centres undefined) with Mus musculus - Cures?
Response given: 5

Challenge: Item COc1cc(NC(C)CCCN)c2nccc(C(OC)OC)c2c1Oc1cccc(C(F)(F)F)c1 (centres undefined) with Mus musculus - Cures?
Response given: 1

Challenge: Checklist item: Cures tested on Mus musculus, entry COc1cc(NC(C)CCCN)c2nccc(CO)c2c1Oc1cccc(C(F)(F)F)c1 (centres undefined) , value?
Response given: 1

These measurements were taken from ChEMBL document CHEMBL1122832.
